Below: a set of entries, each annotated with reported relative viability.
# System: SW 900
# TEST_NAME: relative viability (nuclei count vs DMSO), 5 days (fraction); higher = more cells survive
# PROTOCOL_CONDITIONS: first compound 0.4 µM
Answer as a number with no unit attached.

# annotated cases, reported relative viability shown
{"columns": ["MOLECULE", "relative viability"],
 "data": [
  ["O=C(O)c1ccc(-c2c[nH]c3ncc(-c4ccccc4)cc23)cc1C1CCCC1 + O=C(c1cc(Cc2n[nH]c(=O)c3ccccc23)ccc1F)N1CCN(C(=O)C2CC2)CC1 [Olaparib] (partner 8 µM)", 0.702],
  ["O=C(O)c1ccc(-c2c[nH]c3ncc(-c4ccccc4)cc23)cc1C1CCCC1 + Nc1ncn([C@H]2C[C@H](O)[C@@H](CO)O2)c(=O)n1 [Decitabine] (partner 2 µM)", 0.38],
  ["O=C(O)c1ccc(-c2c[nH]c3ncc(-c4ccccc4)cc23)cc1C1CCCC1 + COc1cc2c(Oc3ccc(NC(=O)C4(C(=O)Nc5ccc(F)cc5)CC4)cc3F)ccnc2cc1OCCCN1CCOCC1 [Foretinib] (partner 0.25 µM)", 0.896],
  ["O=C(O)c1ccc(-c2c[nH]c3ncc(-c4ccccc4)cc23)cc1C1CCCC1 + Cc1cc(Nc2cc(N3CCN(C)CC3)nc(Sc3ccc(NC(=O)C4CC4)cc3)n2)n[nH]1 [Tozasertib] (partner 0.1 µM)", 0.526]
]}

Would you kindly look at the next entry?
I have this molecule here, O=C(O)c1ccc(-c2c[nH]c3ncc(-c4ccccc4)cc23)cc1C1CCCC1 + Cc1nc(Nc2ncc(C(=O)Nc3c(C)cccc3Cl)s2)cc(N2CCN(CCO)CC2)n1 [Dasatinib] (partner 0.075 µM) , and I need its recorded relative viability. 0.584

----------
# System: H3255
# TEST_NAME: relative viability (nuclei count vs DMSO), 5 days (fraction); higher = more cells survive
# PROTOCOL_CONDITIONS: first compound 0.4 µM
Below: a set of entries, each annotated with reported relative viability.
Answer as a number with no unit attached.

# annotated cases, reported relative viability shown
{"columns": ["COMPOUND", "relative viability"],
 "data": [
  ["O=C(O)c1ccc(-c2c[nH]c3ncc(-c4ccccc4)cc23)cc1C1CCCC1 + Cc1nc(NC(=O)N2CCC[C@H]2C(N)=O)sc1-c1ccnc(C(C)(C)C(F)(F)F)c1 [Alpelisib] (partner 2 µM)", 0.715],
  ["O=C(O)c1ccc(-c2c[nH]c3ncc(-c4ccccc4)cc23)cc1C1CCCC1 + CS(=O)(=O)CCNCc1ccc(-c2ccc3ncnc(Nc4ccc(OCc5cccc(F)c5)c(Cl)c4)c3c2)o1 [Lapatinib] (partner 2 µM)", 0.26]
]}

Would you kindly look at the next entry?
I have this compound here, O=C(O)c1ccc(-c2c[nH]c3ncc(-c4ccccc4)cc23)cc1C1CCCC1 + CC(C)C[C@H](NC(=O)[C@H](Cc1ccccc1)NC(=O)c1cnccn1)B(O)O [Bortezomib] (partner 0.002 µM) , and I need its recorded relative viability. 0.833

----------
# Test system: HOP-62
# TEST_NAME: relative viability (nuclei count vs DMSO), 5 days (fraction); higher = more cells survive
# PROTOCOL_CONDITIONS: first compound 1 µM
Rule for this label: 1 (yes) means relative viability is less than 0.3; 0 (no) means relative viability is at least 0.3.

A selection of reference data follows.
{"columns": ["MOLECULE", "TARGET_OR_TEST_SYSTEM", "CLASS_LABEL"],
 "data": [
  ["NC(=O)Nc1cc(-c2cccc(F)c2)sc1C(=O)N[C@H]1CCCNC1 [AZD7762] + Cc1nc(Nc2ncc(C(=O)Nc3c(C)cccc3Cl)s2)cc(N2CCN(CCO)CC2)n1 [Dasatinib] (partner 0.075 µM)", "HOP-62", "0 (no)"],
  ["NC(=O)Nc1cc(-c2cccc(F)c2)sc1C(=O)N[C@H]1CCCNC1 [AZD7762] + N=C(N)NC(=N)NCCc1ccccc1 [Phenformin] (partner 250 µM)", "HOP-62", "0 (no)"],
  ["NC(=O)Nc1cc(-c2cccc(F)c2)sc1C(=O)N[C@H]1CCCNC1 [AZD7762] + CS(=O)(=O)N1CCN(Cc2cc3nc(-c4cccc5[nH]ncc45)nc(N4CCOCC4)c3s2)CC1 [Pictilisib] (partner 1 µM)", "HOP-62", "1 (yes)"],
  ["NC(=O)Nc1cc(-c2cccc(F)c2)sc1C(=O)N[C@H]1CCCNC1 [AZD7762] + C[C@]1(O)C[C@@H](c2nc(-c3ccc4ccc(-c5ccccc5)nc4c3)c3c(N)nccn32)C1 [Linsitinib] (partner 1 µM)", "HOP-62", "0 (no)"],
  ["NC(=O)Nc1cc(-c2cccc(F)c2)sc1C(=O)N[C@H]1CCCNC1 [AZD7762] + CCNC(=O)c1noc(-c2cc(C(C)C)c(O)cc2O)c1-c1ccc(CN2CCOCC2)cc1 [Luminespib] (partner 0.01 µM)", "HOP-62", "0 (no)"]
]}

Strictly below 0.3: is that where relative viability of NC(=O)Nc1cc(-c2cccc(F)c2)sc1C(=O)N[C@H]1CCCNC1 [AZD7762] + CC1(C)CCC(c2ccc(Cl)cc2)=C(CN2CCN(c3ccc(C(=O)NS(=O)(=O)c4ccc(N[C@H](CCN5CCOCC5)CSc5ccccc5)c(S(=O)(=O)C(F)(F)F)c4)cc3)CC2)C1 [Navitoclax] (partner 0.5 µM) sits? 0 (no)

Try this molecule too: NC(=O)Nc1cc(-c2cccc(F)c2)sc1C(=O)N[C@H]1CCCNC1 [AZD7762] + CS(=O)(=O)CCNCc1ccc(-c2ccc3ncnc(Nc4ccc(OCc5cccc(F)c5)c(Cl)c4)c3c2)o1 [Lapatinib] (partner 2 µM) 0 (no)

Try this molecule too: NC(=O)Nc1cc(-c2cccc(F)c2)sc1C(=O)N[C@H]1CCCNC1 [AZD7762] + Nc1nc2[nH]cc(CCc3ccc(C(=O)N[C@@H](CCC(=O)O)C(=O)O)cc3)c2c(=O)[nH]1 [Pemetrexed] (partner 0.2 µM) 1 (yes)

Try this molecule too: NC(=O)Nc1cc(-c2cccc(F)c2)sc1C(=O)N[C@H]1CCCNC1 [AZD7762] + CC(C)C[C@H](NC(=O)[C@H](Cc1ccccc1)NC(=O)c1cnccn1)B(O)O [Bortezomib] (partner 0.002 µM) 0 (no)
